# subject_of_test: Brd4 BD1 (Homo sapiens (Human))
# assay_name: HTRF evaluation of bromodomain inhibitors, Brd4 BD1
# Assay type: binding
# test_conditions: H4ac4 peptide 50 nM, 4 h at 4° C.
# IC50 values compiled below
metric_name: IC50 (nM)

1. CC[C@H]1[C@@H](C)[C@H](n2cc(-c3ccc(OC)cc3)nn2)c2cc(C(=O)OC)ccc2N1C(C)=O	2980
2. CC[C@H]1[C@@H](C)[C@H](n2cc(COCCOCC#Cc3cccc4c3CN(C3CCC(=O)NC3=O)C4=O)nn2)c2cc(C(=O)OC)ccc2N1C(C)=O (some centres unmarked)	7870
3. CC[C@H]1[C@@H](C)[C@H](n2cc(C3CCCCC3)nn2)c2cc(C(=O)OC)ccc2N1C(C)=O	5520
4. C=CCCCC(=O)Nc1ccc(-c2ccc3c(c2)[C@@H](NC(=O)OC(C)C)[C@H](C)[C@H](CC)N3C(C)=O)cc1	2680
5. C=CCCCC(=O)Nc1ccc(-c2ccc3c(c2)[C@@H](N=[N+]=[N-])[C@H](C)[C@H](CC)N3C(C)=O)cc1	3100
6. CC[C@H]1[C@@H](C)[C@H](n2cc(COCCOCCOCCOCC#Cc3cccc4c3CN(C3CCC(=O)NC3=O)C4=O)nn2)c2cc(C(=O)OC)ccc2N1C(C)=O (some centres unmarked)	17000
